# Tested on: C33A cervical carcinoma cells
# testProtocol: cells
# Format: cell-based
# measurementConditions: Homo sapiens, C-33-A; C33A; cellular ATP levels as described in Example 2; read-out: IC50 (μM) C33A, Effect on Cancer Cells Viability
measuredMetric: log10(IC50) (log10 of the value in µM)
Note the log scale: values are log10 of IC50 expressed in µM.

Here are 3 compounds together with their reported answers.
# inputSmiles, log10(IC50)
data = [
    ("COC1=CC(c2cc3ccccc3n2Cc2ccc(O)cc2)=N/C1=C\\c1[nH]c(C)cc1C", 0.12),
    ("COC1=CC(c2cc3ccccc3n2C(=O)N(C)C)=N/C1=C\\c1[nH]c(C)cc1C", 0.47),
    ("COC1=CC(c2[nH]c3ccccc3c2CO)=N/C1=C\\c1[nH]c(C)cc1C", 0.11),
]

[ask] Form field: log10(IC50) recorded for "COC1=CC(c2cc3ccccc3n2COC(=O)C(C)(C)C)=N/C1=C\c1[nH]c(C)cc1C" with C33A cervical carcinoma cells (enter value)
[reply] 1.15

[ask] Next: "COC1=CC(c2cc3ccccc3n2C(=O)OC(C)(C)C)=N/C1=C\c1[nH]c(C)cc1C"
[reply] 0.30

[ask] Next: "COC1=CC(c2[nH]c3ccccc3c2CN2CCOCC2)=N/C1=C\c1[nH]c(C)cc1C"
[reply] -0.72

[ask] Next: "CCOC(=O)C(=O)c1c(C)[nH]c(/C=C2\N=C(c3[nH]c4ccccc4c3C(=O)C(=O)OCC)C=C2OC)c1C"
[reply] 0.86

[ask] Next: "COC1=CC(c2cc3ccccc3[nH]2)=N/C1=C\c1[nH]c(C)c(CCCO)c1C"
[reply] 0.25

###

Listing of recorded IC50 by entry.
# Test system: H1299 human non-small cell lung cancer cells
# testProtocol: Cell viability by cellular ATP levels (ViaLight), H1299 cells
# Format: cell-based
# measurementConditions: Homo sapiens, NCI-H1299, read-out: IC50 (μM) H1299, Effect on Cancer Cells Viability
# From the text: […]. […] […]. The total dimethyl sulfoxide on the cells was 1%. […] […]. As depicted in Table 4, these compounds were efficient in decreasing cellular ATP levels in HI 299 and C33A cancer cell lines. […] In addition, the anti-viral and other biological activity of compounds of the invention can be determined and evaluated in other assay systems known to the skilled artisan.
Numeric only. Scale: µM

# inputSmiles, recordedValue
records = [
    ("CCOC(=O)COC1=CC(c2cc3ccccc3[nH]2)=N/C1=C\\c1[nH]c(C)cc1C", 10.6),
]

[ask] Query: IC50; subject: "COC(=O)CCc1c(C)[nH]c(/C=C2\N=C(c3cc4ccccc4[nH]3)C=C2OC)c1C"
[reply] 0.753

###

# Tested on: C33A cervical carcinoma cells
# testProtocol: cells
# Assay type: cell-based
# measurementConditions: Homo sapiens, C-33-A; C33A; cellular ATP levels as described in Example 2; read-out: IC50 (μM) C33A, Effect on Cancer Cells Viability
measuredMetric: IC50 (µM)
Numeric only. Scale: µM

Here are 7 compounds together with their reported answers.
# compound, valueUnit, IC50
records = [
    ("Cc1cc(C)c(/C=C2\\N=C(c3cc4c(OC(=O)OC(C)(C)C)cccc4[nH]3)C=C2OC(C)C)[nH]1 [Compound 38]", "µM", 0.226),
    ("COC1=CC(c2[nH]c3ccccc3c2CN2CCN(c3ccccc3)CC2)=N/C1=C\\c1[nH]c(C)cc1C [Compound 8]", "µM", 1.76),
    ("Cc1cc(C)c(/C=C2\\N=C(c3cc4ccccc4[nH]3)C=C2O)[nH]1 [Compound 50]", "µM", 0.509),
    ("COC1=CC(c2cc3c(OC(=O)OC(C)(C)C)cccc3[nH]2)=N/C1=C\\c1[nH]c(C)cc1C [Compound 36]", "µM", 0.583),
    ("COC1=CC(c2cc3ccccc3n2C(=O)c2ccc(Br)cc2)=N/C1=C/c1[nH]c(C)cc1C [Compound 55]", "µM", 0.173),
    ("COC1=CC(c2cc3ccccc3[nH]2)=N/C1=C\\c1[nH]c(C)c(I)c1C [Compound 2]", "µM", 0.65),
    ("COC1=CC(c2cc3ccccc3n2CCOS(=O)(=O)O)=N/C1=C\\c1[nH]c(C)cc1C [Compound 65]", "µM", 5.97),
]

Field: next compound
[ask] Query: IC50; subject: COC1=CC(c2cc3cc(OC)ccc3n2C(=O)OC(C)(C)C)=N/C1=C\c1[nH]c(C)cc1C [Compound 30]
[reply] 50
